experimental target: hSTING(HAQ) (Homo sapiens, UniProt Q86WV6, G230A/H232R/R293Q/R71H)
Sequence (Q86WV6 whole entry R71H/G230A/H232R/R293Q): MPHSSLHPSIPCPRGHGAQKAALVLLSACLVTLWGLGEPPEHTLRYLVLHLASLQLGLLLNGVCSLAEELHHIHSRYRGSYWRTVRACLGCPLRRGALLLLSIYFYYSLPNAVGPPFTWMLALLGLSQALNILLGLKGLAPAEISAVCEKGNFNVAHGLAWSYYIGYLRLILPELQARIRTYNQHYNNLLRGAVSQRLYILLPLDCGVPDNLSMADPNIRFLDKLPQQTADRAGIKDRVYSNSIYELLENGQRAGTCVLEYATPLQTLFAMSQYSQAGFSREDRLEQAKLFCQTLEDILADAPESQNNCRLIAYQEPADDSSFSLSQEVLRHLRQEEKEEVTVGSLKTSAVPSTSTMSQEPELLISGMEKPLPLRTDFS
protocol text: Luciferase reporter assay in HEK293T-hSTING-Luciferase cells, HAQ polymorph
conditions used: 20 hr stimulation, read-out: HAQ activity (EC50 range)
recorded metric: EC50

# example entries with known answers
In [3]: df
Out[3]:
                                   compound  value_observed
0  Cc1cccc(CNC(=O)c2ccc3c(c2)N(Cc2ccccc2F)C(=O)C(C)S3)c1 (stereo not drawn)          < 1 µM
1  O=C(NCc1c(F)cc(F)cc1F)c1ccc2c(c1)N(Cc1c(F)cccc1Cl)C(=O)CC2      1 to 10 µM
2  CC1Sc2ccc(C(=O)NCc3c(F)cc(F)cc3F)cc2N(Cc2ccccc2F)C1=O (stereo not drawn)          < 1 µM
3  O=C(NCc1c(F)cc(F)cc1F)c1ccc2c(c1)N(Cc1cc(F)cc(F)c1)S(=O)(=O)CC2         > 10 µM
4  CC1(C)CC(=O)N(Cc2cc(F)cc(F)c2)c2cc(C(=O)NCc3c(F)cc(F)cc3F)ccc21          < 1 µM
5  CC1Sc2ccc(C(=O)NCc3ccco3)nc2N(Cc2cc(F)cc(F)c2)C1=O (stereo not drawn)      1 to 10 µM
6  O=C(NCc1cc2ccccc2o1)c1ccc2c(c1)N(Cc1c(F)cccc1Cl)C(=O)CS2      1 to 10 µM
7  O=C(NCc1ccco1)c1ccc2c(c1)N(Cc1cc(F)cc(F)c1)C(=O)CS2         > 10 µM

Kindly review the next compound as well.
Considering CC1Sc2ncc(C(=O)NCc3ccccc3)cc2N(Cc2c(F)cccc2Cl)C1=O (stereo not drawn) , its EC50 with hSTING(HAQ) (Homo sapiens, UniProt Q86WV6, G230A/H232R/R293Q/R71H) was recorded as 1 to 10 µM

###

Tested on: NF-κB pathway
protocol text: Reporter gene expression assay in THP1-Dual cells, NFkB axis (secreted SEAP)
Assay type: cell-based, human
conditions used: read-out: THP-NFKB activity (EC50 range)
From the text: THP1-Dual™ cells (Invivogen) were derived from the human THP-1 monocyte cell line by stable integration of two inducible reporter constructs. […] After 2 ohr of stimulation supernatant were removed and reporter proteins were readily measured in the cell culture supernatant using QUANTI-Blue™ (Invivogen), a SEAP detection reagent, and QUANTI-Luc™ (Invivogen), a luciferase detection reagent on a Spectramax i3X luminometer.
Parameter EC50: see the listing below.

# example entries with known answers
>>> print(df.to_string())
                                   compound  experimental_target  recorded_metric  value_observed
0  Cc1ccc(CNC(=O)c2ccc3c(n2)N(Cc2cc(F)cc(F)c2)C(=O)C(C)S3)o1 (stereo not shown) [Example 198]        NF-κB pathway             EC50      1 to 10 µM
1  CC1Sc2ncc(C(=O)NCc3cc4ccccc4o3)cc2N(Cc2cc(F)cc(F)c2)C1=O (stereo not shown) [Example 194]        NF-κB pathway             EC50      1 to 10 µM
2  CC1Sc2ccc(C(=O)NCc3c(F)cc(F)cc3F)cc2N(Cc2cc(F)cc(F)c2)C1=O (stereo not shown) [Example 148]        NF-κB pathway             EC50          < 1 µM
3  Cc1ccc(CNC(=O)c2ccc3c(n2)N(Cc2cc(F)cc(F)c2)C(=O)C(C)S3)o1 (stereo not shown) [Example 203]        NF-κB pathway             EC50         > 10 µM
4  C[C@H]1Oc2ccc(C(=O)NCc3c(F)cc(F)cc3F)cc2N(Cc2cc(F)cc(F)c2)C1=O [Example 242]        NF-κB pathway             EC50         > 10 µM

The reported value for CC1Sc2ccc(C(=O)NCc3c(F)cc(F)cc3F)cc2N(Cc2cc(F)cc(F)c2)C1=O (stereo not shown) [Example 145] in terms of EC50 is 1 to 10 µM

The reported value for CC1(CCl)Sc2ccc(C(=O)NCc3ccc(F)cc3F)cc2N(Cc2c(F)cccc2Cl)C1=O (stereo not shown) [Example 150] in terms of EC50 is 1 to 10 µM

The reported value for CC1Sc2ncc(C(=O)NCc3cc4ccccc4o3)cc2N(Cc2cc(F)cc(F)c2)C1=O (stereo not shown) [Example 193] in terms of EC50 is > 10 µM

The reported value for Cc1ccc(CNC(=O)c2ccc3c(n2)N(Cc2cc(F)cc(F)c2)C(=O)C(C)S3)o1 (stereo not shown) [Example 190] in terms of EC50 is 1 to 10 µM

The reported value for C[C@@H]1Oc2ccc(C(=O)NCc3c(F)cc(F)cc3F)cc2N(Cc2cc(F)cc(F)c2)C1=O [Example 243] in terms of EC50 is > 10 µM
